- Target Entity: Human immunodeficiency virus type 1 reverse transcriptase (Human immunodeficiency virus 1, UniProt Q72547)
- Method: Inhibition of HIV1 reverse transcriptase
- Measurement Conditions: read-out: log(1/IC50) (converted)
# binning rule on IC50: low: < 30 nM; intermediate: ≥ 30 nM and < 1000 nM; high: ≥ 1000 nM

INSERT INTO measurements (molecule, group) VALUES
  ('CC(C)=CN1CCn2c(=S)[nH]c3ccc(Cl)c(c32)C1C (stereo unspecified)', 'low'),
  ('CC(C)=CN1Cc2ccc(Br)c3[nH]c(=S)n(c23)C[C@@H]1C', 'high'),
  ('COc1ccc2[nH]c(=S)n3c2c1CN(C=C(C)C)[C@@H](C)C3', 'intermediate'),
  ('C=C(C)N1Cc2cccc3[nH]c(=O)n(c23)C(CCC)C1 (stereo unspecified)', 'high'),
  ('CC(C)=CN1Cc2cc(F)cc3[nH]c(=S)n(c23)C[C@@H]1C', 'low'),
  ('CC(C)=CN1[C@H](C)Cn2c(=O)[nH]c3cc(Cl)cc(c32)[C@H]1C', 'intermediate'),
  ('CC(C)=CN1CCn2c(=O)[nH]c3cccc(c32)C1C (stereo unspecified)', 'high'),
  ('C=C(C)N1Cc2cc(Cl)cc3[nH]c(=S)n(c23)C(C)C1 (stereo unspecified)', 'intermediate');

Task: Which class does C[C@H]1Cn2c(=O)[nH]c3ccc(N(C)C)c(c32)CN1CC1CC1 fall in?
Result: high

Task: Which class does CSc1ccc2[nH]c(=S)n3c2c1CN(C=C(C)C)[C@@H](C)C3 fall in?
Result: low

###

- Target Entity: Human immunodeficiency virus type 1 reverse transcriptase (Human immunodeficiency virus 1, UniProt Q72547)
- Method: Inhibition of HIV1 reverse transcriptase
- Measurement Conditions: read-out: log(1/IC50) (converted)
Reported Property: log10(IC50) (log10 of the value in µM)
Kindly note that the scale is log10 and the underlying IC50 is in µM.

INSERT INTO results (compound, reported_property, obs_value) VALUES
  ('CC(C)=CN1Cc2cccc3[nH]c(=S)n(c23)CC1C (centres undefined)', 'log10(IC50)', -1.01);

Task: Tell me log10(IC50) reported for C=C(C)N1Cc2cccc3[nH]c(=O)n(c23)C(C(C)C)C1 (centres undefined)
Result: 1.10

###

- Target Entity: Human immunodeficiency virus type 1 reverse transcriptase (Human immunodeficiency virus 1)
- Method: Inhibition of HIV1 reverse transcriptase
- Measurement Conditions: read-out: log(1/IC50) (converted)
// reported log10(IC50) for each item listed
Kindly note that the scale is log10 and the underlying IC50 is in µM.

Consider the following illustrative entries.
INSERT INTO assay_data (molecule, obs_value) VALUES
  ('C[C@H]1Cn2c(=O)[nH]c3cc(N(C)C)cc(c32)CN1CC1CC1', 0.82),
  ('CCCN1Cc2cccc3[nH]c(=O)n(c23)C(C(C)C)C1 (stereo unspecified)', 1.87);

Task: Tell me log10(IC50) reported for C=C(C)N1Cc2cccc3[nH]c(=O)n(c23)C(C)C1 (stereo unspecified)
Result: 1.51

Task: Tell me log10(IC50) reported for CC(C)=CN1CCn2c(=S)[nH]c3ccc(Cl)c(c32)C1
Result: -1.34

Task: Tell me log10(IC50) reported for CC(C)=CN1Cc2c(Br)ccc3[nH]c(=S)n(c23)C[C@@H]1C
Result: -2.52

Task: Tell me log10(IC50) reported for C[C@H]1Cn2c(=S)[nH]c3cccc(c32)CN1CC1CC1
Result: -1.22

###

- Target Entity: Human immunodeficiency virus type 1 reverse transcriptase (Human immunodeficiency virus 1, UniProt Q72547)
- Method: Inhibition of HIV1 reverse transcriptase
- Measurement Conditions: read-out: log(1/IC50) (converted)
// reported IC50 for each item listed
A number alone suffices; assume µM.

Consider the following illustrative entries.
INSERT INTO results (compound, reported_property, obs_value) VALUES
  ('CC(C)=CN1Cc2cccc3[nH]c(=S)n(c23)[C@@H](C)[C@@H]1C (relative stereo)', 'IC50', 14.5),
  ('C[C@H]1Cn2c(=O)[nH]c3cc([N+](=O)[O-])cc(c32)CN1CC1CC1', 'IC50', 33.4),
  ('COc1ccc2c3c1[nH]c(=O)n3C[C@H](C)N(C=C(C)C)C2', 'IC50', 6.61);

Task: Tell me IC50 reported for C/C=C1/C[C@H]2Cn3c(=S)[nH]c4cc(Cl)cc(c43)CN2C1
Result: 3.8

Task: Tell me IC50 reported for C=C(C)N1Cc2cccc3[nH]c(=O)n(c23)CC1C (configuration not stated)
Result: 34.7

Task: Tell me IC50 reported for CC(C)=CN1[C@H](C)c2cccc3[nH]c(=S)n(c23)C[C@@H]1C (relative stereo)
Result: 1.15

###

- Target Entity: UniProt:Q72547
- Method: Inhibition of HIV1 reverse transcriptase
Reported Property: log(1/IC50)
API doc: respond with a numeric literal and nothing else, no unit.

Consider the following illustrative entries.
INSERT INTO assay_data (molecule, reported_property, obs_value) VALUES
  ('CC1CN(CC2CC2)Cc2cc(Cl)cc3[nH]c(=S)n1c23 (centres undefined)', 'log(1/IC50)', 5.66),
  ('CCCN1CCn2c(=S)[nH]c3cccc(c32)C1C (centres undefined)', 'log(1/IC50)', 5.61),
  ('CCCN1Cc2cccc3[nH]c(=S)n(c23)CC1C (centres undefined)', 'log(1/IC50)', 5.78);

Task: Tell me log(1/IC50) reported for CCCN1Cc2cccc3[nH]c(=O)n(c23)CC1C (centres undefined)
Result: 4.22

###

- Target Entity: Human immunodeficiency virus type 1 reverse transcriptase (Human immunodeficiency virus 1)
- Method: Inhibition of HIV1 reverse transcriptase
- Measurement Conditions: read-out: log(1/IC50) (converted)
Reported Property: IC50 (nM)
A number alone suffices; assume nM.

INSERT INTO assay_data (compound, reported_property, measure_unit, obs_value) VALUES
  ('CC(C)=CN1CCn2c(=S)[nH]c3cccc(c32)C1C (configuration not stated)', 'IC50', 'nM', 77.6),
  ('CC(C)=CN1CCn2c(=O)[nH]c3ccc(Cl)c(c32)C1C (configuration not stated)', 'IC50', 'nM', 145),
  ('CC(C)=CN1Cc2c(C#N)ccc3[nH]c(=S)n(c23)C[C@@H]1C', 'IC50', 'nM', 56.2),
  ('C[C@H]1Cn2c(=S)[nH]c3cc([N+](=O)[O-])cc(c32)CN1CC1CC1', 'IC50', 'nM', 2450),
  ('COc1ccc2c3c1[nH]c(=S)n3C[C@H](C)N(C=C(C)C)C2', 'IC50', 'nM', 4680),
  ('CC(C)=CN1Cc2c(C=O)ccc3[nH]c(=S)n(c23)C[C@@H]1C', 'IC50', 'nM', 186),
  ('CC(C)=CN1C[C@H](C)n2c(=S)[nH]c3cccc(c32)[C@H]1C (relative stereo)', 'IC50', 'nM', 25700),
  ('CC(C)=CN1Cc2cccc3[nH]c(=O)n(c23)C[C@@H]1C', 'IC50', 'nM', 3310),
  ('C[C@H]1[C@H](C)n2c(=S)[nH]c3cccc(c32)CN1CC1CC1 (relative stereo)', 'IC50', 'nM', 13500),
  ('CC(C)=CN1Cc2cccc3[nH]c(=S)n(c23)C[C@@H]1C', 'IC50', 'nM', 44.2);

Task: Tell me IC50 reported for CC(C)=CN1Cc2cccc3[nH]c(=O)n(c23)CC1C(C)C (configuration not stated)
Result: 10000

Task: Tell me IC50 reported for CC(C)=CN1Cc2cc(Cl)c(Cl)c3[nH]c(=S)n(c23)C[C@@H]1C
Result: 25.6

Task: Tell me IC50 reported for CC(C)=CN1Cc2c(C)ccc3[nH]c(=O)n(c23)C[C@@H]1C
Result: 1000

Task: Tell me IC50 reported for CCCN1CCn2c(=O)[nH]c3cccc(c32)C1
Result: 89100

Task: Tell me IC50 reported for C=C(C)N1CCn2c(=O)[nH]c3cccc(c32)C1
Result: 46800

###

- Target Entity: Human immunodeficiency virus type 1 reverse transcriptase (Human immunodeficiency virus 1, UniProt Q72547)
- Method: Inhibition of HIV1 reverse transcriptase
- Measurement Conditions: read-out: log(1/IC50) (converted)
Exam item: assign class 1 to entries whose IC50 is below 20 µM and class 0 to entries at or above 20 µM. Note that a value of exactly 20 µM receives class 0.

Examples with answers:
INSERT INTO measurements (molecule, group) VALUES
  ('C[C@H]1Cn2c(=O)[nH]c3cc(N)cc(c32)CN1CC1CC1', 'class 0'),
  ('C=C(C)N1Cc2cccc3[nH]c(=O)n(c23)CC1CC (stereo unspecified)', 'class 0'),
  ('C=C(C)N1Cc2cccc3[nH]c(=S)n(c23)C[C@@H]1C', 'class 1'),
  ('S=c1[nH]c2cccc3c2n1C(Cc1ccccc1)C(Cc1ccccc1)N(CC1CC1)C3 (stereo unspecified)', 'class 1'),
  ('CCOc1ccc2[nH]c(=S)n3c2c1CN(C=C(C)C)[C@@H](C)C3', 'class 1');

Task: Does C=CCN1Cc2cccc3[nH]c(=O)n(c23)C[C@@H]1C have IC50 strictly under 20 µM?
Result: class 0

Task: Does CCCN1Cc2cc(Cl)cc3[nH]c(=S)n(c23)C(=O)C1C (stereo unspecified) have IC50 strictly under 20 µM?
Result: class 0

Task: Does C=C(C)N1Cc2cccc3[nH]c(=O)n(c23)CC1C(C)C (stereo unspecified) have IC50 strictly under 20 µM?
Result: class 1

Task: Does CC(C)=CN1[C@H](C)Cn2c(=S)[nH]c3cc(Cl)cc(c32)[C@H]1C have IC50 strictly under 20 µM?
Result: class 1

Task: Does CC(C)=CN1Cc2c(Br)ccc3[nH]c(=O)n(c23)C[C@@H]1C have IC50 strictly under 20 µM?
Result: class 1
